Hey, just so you know, these numbers are from ChEMBL document CHEMBL2169810.

# reported IC50; entries follow
molecular target: Carbonic anhydrase 2 (Homo sapiens)

Please review the following examples before continuing.
O=C(NCC1CCCCC1)P(=O)(O)O; 9.23 µM
O=C(NCCCCCCNS(=O)(=O)c1ccc(Oc2ccccc2)cc1)P(=O)(O)O; 0.1 µM

Provide the documented IC50 with Carbonic anhydrase 2 (Homo sapiens) as the system for O=C(NCCN1CCCC1)P(=O)(O)O 9.66 µM
